Measured IC50 of individual entries
# target-entity: CYP3A4(BFC) (Homo sapiens, UniProt P08684)
# Sequence (P08684 whole entry): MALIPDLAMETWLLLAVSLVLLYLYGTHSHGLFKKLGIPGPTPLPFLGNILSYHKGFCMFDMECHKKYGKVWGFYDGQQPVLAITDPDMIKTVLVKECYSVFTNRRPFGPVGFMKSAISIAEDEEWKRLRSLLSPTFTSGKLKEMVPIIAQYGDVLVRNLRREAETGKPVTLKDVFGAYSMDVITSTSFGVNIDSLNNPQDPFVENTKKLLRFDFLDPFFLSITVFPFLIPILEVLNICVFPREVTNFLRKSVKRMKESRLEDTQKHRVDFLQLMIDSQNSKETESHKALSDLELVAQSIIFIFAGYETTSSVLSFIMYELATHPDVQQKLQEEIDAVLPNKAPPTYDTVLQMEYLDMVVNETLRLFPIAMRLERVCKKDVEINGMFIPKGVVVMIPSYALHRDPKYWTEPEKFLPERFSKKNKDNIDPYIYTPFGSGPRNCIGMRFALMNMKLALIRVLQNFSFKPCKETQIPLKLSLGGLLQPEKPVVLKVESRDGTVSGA
# method-description: CYP3A4(BFC) inhibition (fluorescent substrate)
# Assay type: in vitro ADME
# cond: read-out: Cyp IC50 3A4(BFC)

- CCCS(=O)(=O)Nc1ccc(F)c(C(=O)c2c[nH]c3ncc(-c4ccnc(F)c4)cc23)c1F: > 10 µM

IC50 in this record for COc1ncc(-c2cnc3[nH]cc(C(=O)c4c(F)ccc(NS(=O)(=O)c5c(F)cccc5F)c4F)c3c2)cn1 : > 10 µM

For CCCS(=O)(=O)Nc1ccc(F)c(C(=O)c2c[nH]c3ncc(-c4ccc(OCCCN(C)C)nc4)cc23)c1F the compound record lists IC50 as > 10 µM

What the record says about Cc1cnc2[nH]cc(C(=O)c3c(F)ccc(NS(=O)(=O)c4cccnc4)c3F)c2c1 : IC50 is < 5 µM

For this compound ( CCCS(=O)(=O)Nc1ccc(F)c(C(=O)c2c[nH]c3ncc(-c4cnn(Cc5ccccc5)c4)cc23)c1F ), measured IC50 is > 10 µM

Record N#Cc1cnc2[nH]cc(C(=O)c3cccc(NS(=O)(=O)c4ccccc4)c3F)c2c1 , field IC50: > 10 µM

Data point: O=C(c1c(F)ccc(NS(=O)(=O)c2cc(F)ccc2F)c1F)c1c[nH]c2nccc(Cl)c12 ; IC50 = 5 to 10 µM

So, COc1ncc(-c2cnc3[nH]cc(C(=O)c4c(F)ccc(NS(=O)(=O)c5cc(F)ccc5F)c4F)c3c2)cn1 ? Its IC50 was > 10 µM

Measured IC50, CCCS(=O)(=O)Nc1ccc(F)c(C(=O)c2c[nH]c3ncc(-c4ccc(C#CCN(CC)CC)nc4)cc23)c1F : > 10 µM

Short answer for C#Cc1cnc2[nH]cc(C(=O)c3c(F)ccc(NS(=O)(=O)CCC)c3F)c2c1 : IC50 was < 5 µM

The measured IC50 associated with CCCS(=O)(=O)Nc1ccc(F)c(C(=O)c2c[nH]c3ncc(-c4ccc(C(=O)NC)nc4)cc23)c1F reads > 10 µM
